Below: a set of entries, each annotated with reported IC50.
Target: Cbl-b (Homo sapiens)
Sequence (Q13191 36-427): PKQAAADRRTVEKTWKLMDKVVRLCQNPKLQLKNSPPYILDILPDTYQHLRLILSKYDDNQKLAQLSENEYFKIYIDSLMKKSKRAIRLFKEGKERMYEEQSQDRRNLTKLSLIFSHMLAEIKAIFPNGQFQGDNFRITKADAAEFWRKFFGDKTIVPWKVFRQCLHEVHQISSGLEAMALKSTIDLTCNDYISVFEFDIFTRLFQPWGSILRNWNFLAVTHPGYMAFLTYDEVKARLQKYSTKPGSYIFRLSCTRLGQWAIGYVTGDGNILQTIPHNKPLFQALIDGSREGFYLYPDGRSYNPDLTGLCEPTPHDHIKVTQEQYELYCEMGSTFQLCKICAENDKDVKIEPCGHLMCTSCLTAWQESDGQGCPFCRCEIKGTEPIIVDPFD
Assay: Cbl-b inhibition assay (Cbl-b activity assay, FRET, Biological Example 1; 100 mM NaCl, 60 nM Src kinase)
Format: biochemical
Settings: upper bound stated in text lists; read-out: IC50 values in the Cbl-b inhibition assay of Biological Example 1

{"Compound": "C[C@H](Cc1nncn1C)c1cccc(NC(=O)c2cc3cc(N4CCNCC4)ccc3cn2)c1 [Compound 472]", "IC50": "≤ 100 nM"}
{"Compound": "Cn1cnnc1CC(C)(O)c1cccc(N2Cc3c(cccc3C(F)(F)F)C2=O)c1 (stereo not drawn) [Compound 297]", "IC50": "≤ 10000 nM"}
{"Compound": "Cn1cnnc1C(F)(F)[C@](C)(F)c1cccc(N2Cc3c(cc(CN4CC(C#N)C4)cc3C(F)(F)F)C2=O)c1 [Compound 456]", "IC50": "≤ 300 nM"}
{"Compound": "C[C@@H](Sc1nncn1C)c1cccc(NC(=O)c2cc(C(=O)N3CC[C@H](O)C3)ccn2)c1 [Compound 161]", "IC50": "≤ 10000 nM"}
{"Compound": "Cc1cc(C(=O)Nc2cccc(C3([C@H](F)c4nncn4C)COC3)c2)nc(C2CC2)n1 [Example 669a]", "IC50": "≤ 100 nM"}
{"Compound": "C[C@H](Sc1nncn1C)c1ccnc(NC(=O)c2noc3ccccc23)c1 [Compound 115]", "IC50": "≤ 10000 nM"}
{"Compound": "Cc1cc(C(=O)Nc2cccc(C3(Cc4nncn4C)COC3)c2)n2nc(C(F)(F)F)cc2n1 [Example 598]", "IC50": "≤ 300 nM"}
{"Compound": "Cn1cnnc1CC1(c2cccc(N3Cc4c(cc(CN5Cc6ccc(F)cc6C5)cc4C(F)(F)F)C3=O)c2)COC1 [Example 655]", "IC50": "≤ 100 nM"}
{"Compound": "CC(c1cc(C(=O)Nc2cccc(C3(Cc4nncn4C)COC3)c2)nc(C2CC2)n1)N1CCC2(CC2)C1 (stereo in doubt) [Example 592b]", "IC50": "≤ 100 nM"}
{"Compound": "CN1CCN(Cc2cc3c(c(C(F)(F)F)c2)CN(c2cccc(C4(Cc5nncn5C)COC4)c2)C3=O)CC1 [Example 625]", "IC50": "≤ 100 nM"}
{"Compound": "C[C@H](Sc1nncn1C)c1cccc(NC(=O)c2cc(C(=O)N3CCCC3)ccn2)c1 [Compound 138]", "IC50": "≤ 10000 nM"}
{"Compound": "C[C@H](Cc1ncn(C)n1)c1cccc(N2Cc3c(cccc3C(F)(F)F)C2=O)c1 [Compound 263]", "IC50": "≤ 10000 nM"}
{"Compound": "CN(c1cc2c(c(C(F)(F)F)c1)CN(c1cccc([C@@](C)(F)C(F)(F)c3nncn3C)c1)C2=O)[C@H]1CNC[C@H]1F [Example 549]", "IC50": "≤ 300 nM"}
{"Compound": "CO[C@@H]1CCN(C(=O)c2ccnc(C(=O)Nc3cccc([C@H](C)Sc4nncn4C)c3)c2)C1 [Compound 141]", "IC50": "≤ 10000 nM"}
{"Compound": "C[C@H](Sc1nncn1C)c1cccc(NC(=O)c2cccc(CF)n2)c1 [Compound 87]", "IC50": "≤ 10000 nM"}

----------
Tested on: T-cell
Assay: CD25 cell surface staining on T-cells co-stimulated with anti-CD3 and anti-CD28 antibody (Biological Example 2)
Type: cell-based, human
Details: Homo sapiens, T-cell, fold change over baseline; 4 μM Cbl-b inhibitor; primary human total T-cells; read-out: CD25 staining Anti-CD3/Anti-CD28 stimulation
Below: a set of entries, each annotated with reported fold induction at 4 µM.

{"Compound": "C[C@H](Cc1nncn1C)c1cccc(NC(=O)c2cc(C(=O)N3CC[C@H](O)C3)cc(C(F)(F)F)n2)c1", "fold induction at 4 µM": "> 1.76"}
{"Compound": "Cc1nc2cc([C@H](C)Sc3nncn3C)cc(NC(=O)c3cccc(C(F)(F)F)n3)c2o1 [Compound 130a]", "fold induction at 4 µM": "> 1.76"}
{"Compound": "C[C@H](Sc1nncn1C)c1cccc(NC(=O)c2ccc3ccccc3n2)c1", "fold induction at 4 µM": "1.01 to 1.3"}
{"Compound": "C[C@H](Cc1nncn1C)c1cc(N[C@H]2CCOC2)nc(N2Cc3c(cccc3C(F)(F)F)C2=O)c1 (stereo in doubt)", "fold induction at 4 µM": "1.01 to 1.3"}
